protocol details: In vitro dissolution (drug release) from 400 mg matrix tablets, USP apparatus II, SGF or SIF
Assay type: physicochemical
experimental setup: PAA/PEO (1:1.5) formulation, 10% of active, SIF
Structures can show the parent of a compound that is named as a salt.
Each entry gets criterion not met if its T50 values in SIF, PAA/PEO stays under 20, and criterion met if its T50 values in SIF, PAA/PEO is 20 or above.

Field: example entries. Status: answers known.
>>> print(df.to_string())
                                   compound     classification
0  CNS(=O)(=O)CCc1ccc2[nH]cc(C3CCN(C)CC3)c2c1 [Naratriptan HCl]      criterion met
1  CNC(=C[N+](=O)[O-])NCCSCc1ccc(CN(C)C)o1 [Ranitidine HCl]  criterion not met
2  CCCCOc1cc(C(=O)OCCN(CC)CC)ccc1N [Benoxinate HCl]      criterion met
3  COc1ccc([C@@H]2Sc3ccccc3N(CCN(C)C)C(=O)[C@@H]2OC(C)=O)cc1 [Diltiazem HCl]  criterion not met
4  CN(C)CCOC(C)(c1ccccc1)c1ccccn1 (centres unmarked) [Doxylamine Succinate]      criterion met

Check if T50 values in SIF, PAA/PEO >= 20 (inclusive). Item: CN(C)CCOC(c1ccccc1)c1ccccc1 [Diphenhydramine HCl] criterion not met

Check if T50 values in SIF, PAA/PEO >= 20 (inclusive). Item: Cc1ncc(C[n+]2csc(CCO)c2C)c(N)n1 [Thiamine HCl] criterion not met

Check if T50 values in SIF, PAA/PEO >= 20 (inclusive). Item: CCOc1ccccc1OCCN[C@H](C)Cc1ccc(OC)c(S(N)(=O)=O)c1 [Tamsulosin HCl] criterion met

* * *

protocol details: In vitro dissolution (drug release) from 400 mg matrix tablets, USP apparatus II, SGF or SIF
Format: physicochemical
experimental setup: 1:1.5 PAA/PEO, SIF
Counter-ions that a name gives are not always drawn.
test readout: T50 in SIF

Solved entries:
>>> df
                                   compound  test_readout  result
0  COc1ccc([C@@H]2Sc3ccccc3N(CCN(C)C)C(=O)[C@@H]2OC(C)=O)cc1 [Diltiazem HCl]    T50 in SIF    18 h
1  COc1cccc(C2(O)CCCCC2CN(C)C)c1 (stereo not shown) [Tramadol HCl]    T50 in SIF    31 h
2  CC(C[N+](C)(C)C)OC(N)=O (stereo not shown) [Bethanechol Chloride]    T50 in SIF    55 h

Next item in the queue.
Give the reported T50 in SIF for this compound. C[N+](C)(C)CC(=O)O [Betaine Hydrochloride] 22 h

* * *

protocol details: In vitro dissolution (drug release) from 400 mg matrix tablets, USP apparatus II, SGF or SIF
Type: physicochemical
experimental setup: 1:1.5 PAA/PEO excipient mixture, SIF
Counter-ions that a name gives are not always drawn.
Readings of T10 for the listed compounds
Give the quantity in h, number only.

Solved entries:
>>> print(df.to_string())
                                   compound  numeric_readout
0  CC(C[N+](C)(C)C)OC(N)=O (stereo not shown) [Bethanechol Chloride]               10
1  Cc1ncc(C[n+]2csc(CCO)c2C)c(N)n1 [Thiamine HCl]                1
2                        C[N+](C)(C)CC(=O)O                6

Next item in the queue.
Give the reported T10 for this compound. CC(C)(C)CC(C)(C)c1ccc(OCCOCC[N+](C)(C)Cc2ccccc2)cc1 [Benzethonium Chloride] 25

The origin of these recorded values is patent US20040091528A1.
